Entries and their TGI
# System: OVCAR-5 ovarian
# Assay explanation: NCI tumour cell line growth inhibition, 48 h

// known answers, use as guide
- Compound: "COc1cc(/C=C\\[N+](=O)[O-])ccc1OCc1ccccc1"
  Experimental readout: "TGI"
  Result: "13.7 µM"
- Compound: "CN(C(=O)Cc1ccc(Cl)c(Cl)c1)[C@H]1CCCC[C@@H]1[N+]1(C)CCCC1"
  Experimental readout: "TGI"
  Result: "> 100 µM"

Identify the measured TGI of `O=c1c(SSc2coc3cc(F)ccc3c2=O)coc2cc(F)ccc12` for OVCAR-5 ovarian.
> 100 µM

Identify the measured TGI of CCOc1cc(NC(C)=O)ccc1C(=O)NN1C(=O)C(Oc2ccccc2)C1c1ccccc1 (stereo not given) for OVCAR-5 ovarian.
> 100 µM

The measurements presented in this section are drawn from PubChem BioAssay (NCI).
